# Test system: Mycobacterium avium
# ASSAY_INFO: Antimycobacterial activity against Mycobacterium avium isolate MAV4 assessed as reduction in bacterial viability incubated for 3 days by MTT assay
# Format: organism-based
# RUN_PARAMETERS: 72 h
PARAMETER: MIC

CC[C@H]1OC(=O)[C@H](C)[C@@H](O[C@H]2C[C@@](C)(OC)[C@@H](O)[C@H](C)O2)[C@H](C)[C@@H](O[C@@H]2O[C@H](C)C[C@H](N(C)C)[C@H]2O)[C@](C)(O)C[C@@H](C)CN(C)[C@H](C)[C@@H](O)[C@]1(C)O [AZITHROMYCIN] | 256 µg/mL
CC[C@H]1OC(=O)[C@H](C)[C@@H](O[C@H]2C[C@@](C)(OC)[C@@H](O)[C@H](C)O2)[C@H](C)[C@@H](O[C@@H]2O[C@H](C)C[C@H](N(C)C)[C@H]2O)[C@](C)(OC)C[C@@H](C)C(=O)[C@H](C)[C@@H](O)[C@]1(C)O [CLARITHROMYCIN] | 8 µg/mL
CCCOc1ccc(-c2cn(CCN3CCCCCC3)c3ccccc3c2=O)cc1 | 256 µg/mL
CCCOc1ccc(-c2cn(CCN(CC)CC)c3ccccc3c2=O)cc1 | 256 µg/mL
CCCOc1ccc(-c2cn(CCN3CCCCC3)c3ccccc3c2=O)cc1 | 256 µg/mL

Now, please, on to the next molecule.
What value of MIC has been recorded for this entry: O=C(O)c1cn(C2CC2)c2cc(N3CCNCC3)c(F)cc2c1=O [CIPROFLOXACIN]
32 µg/mL
